- systemName: Matrix metalloproteinase-9 (Homo sapiens)
- Sequence (P14780 whole entry): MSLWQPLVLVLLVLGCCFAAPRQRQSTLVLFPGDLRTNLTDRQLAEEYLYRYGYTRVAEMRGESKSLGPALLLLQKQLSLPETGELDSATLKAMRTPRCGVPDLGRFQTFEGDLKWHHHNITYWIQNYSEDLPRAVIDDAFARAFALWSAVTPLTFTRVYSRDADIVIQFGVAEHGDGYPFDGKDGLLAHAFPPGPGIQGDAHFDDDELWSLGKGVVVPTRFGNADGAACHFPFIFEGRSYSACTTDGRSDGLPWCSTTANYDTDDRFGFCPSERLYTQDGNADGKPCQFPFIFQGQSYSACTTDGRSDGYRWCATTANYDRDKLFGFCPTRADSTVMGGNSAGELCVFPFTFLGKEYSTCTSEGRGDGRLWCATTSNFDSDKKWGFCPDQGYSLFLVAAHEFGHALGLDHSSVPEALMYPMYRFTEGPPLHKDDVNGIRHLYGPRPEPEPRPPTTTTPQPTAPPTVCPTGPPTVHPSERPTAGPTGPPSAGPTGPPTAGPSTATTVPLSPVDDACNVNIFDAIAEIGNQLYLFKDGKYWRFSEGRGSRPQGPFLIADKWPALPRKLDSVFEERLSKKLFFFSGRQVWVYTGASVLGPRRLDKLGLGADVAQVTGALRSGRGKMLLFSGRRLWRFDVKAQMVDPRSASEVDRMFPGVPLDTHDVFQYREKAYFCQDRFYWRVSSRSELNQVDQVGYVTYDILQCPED
measureName: pIC50
Reminder that pIC50 is minus the log10 of a molar concentration.

Ask: # value lookup — system Matrix metalloproteinase-9 (Homo sapiens), readout pIC50, item CNC(=O)[C@H](Cc1ccccc1)NC(=O)[C@H]1[C@@H](COCC(=O)NO)[C@@H]1CSc1ccccc1
Reply: 4.44

* * *

- System: L1210
- experiment: Compound was evaluated for the inhibitory activity against L1210 cell lines
- Type: functional, cell-based
- measurementConditions: Mus musculus
pIC50: −log10 of the molar value.
measureName: pIC50

Ask: Reported pIC50 for CNC(=O)[C@H](Cc1ccccc1)NC(=O)[C@H]1[C@@H](COCC(=O)NO)[C@@H]1CSc1ccccc1 : what is it?
Reply: < 3.00
